The reported measurements were obtained from PubChem BioAssay.

experimentNotes: DUSP6 inhibitors restoring Erk phosphorylation by chemical complementation, primary imaging in DUSP6-transfected HeLa (AID 609)
conditionContext: HeLa MKP-3 transfected, phospho-Erk imaging KS statistic; measured here: nuclear pErk red intensity z-score; at 10 µM; stronger effect = higher value; cells stimulated with TPA for 15 min
recordedEndpoint: z-score
Give the value as a plain number.

[
  {
    "molecule": "CC(C)c1nc(NCC2CCCO2)c(C#N)c2c1COC(C)(C)C2 (stereo not drawn)",
    "endpointValue": -0.111
  }
]

// z-score lookup, molecule = Cc1c(C(Nc2ccccn2)c2ccccc2)c(=O)n(-c2ccccc2)n1C (stereo not drawn) , result: 1.12

###

testedOn: Voltage-gated potassium channel subunit beta-2 (Rattus norvegicus) (UniProt P62483)
Sequence (P62483 whole entry, looked up): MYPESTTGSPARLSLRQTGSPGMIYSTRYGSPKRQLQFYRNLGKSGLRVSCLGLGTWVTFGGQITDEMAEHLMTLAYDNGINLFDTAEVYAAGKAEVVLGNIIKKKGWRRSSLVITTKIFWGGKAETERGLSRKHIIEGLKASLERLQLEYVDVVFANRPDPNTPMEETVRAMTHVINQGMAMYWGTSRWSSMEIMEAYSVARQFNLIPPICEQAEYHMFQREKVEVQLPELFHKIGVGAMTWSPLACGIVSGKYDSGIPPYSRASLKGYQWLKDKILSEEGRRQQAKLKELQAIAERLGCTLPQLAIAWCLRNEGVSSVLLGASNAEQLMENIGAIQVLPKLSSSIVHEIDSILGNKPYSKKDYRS
experimentNotes: KvBeta positive modulators, primary screen, biochemical, NADPH fluorescence (AID 623);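 further: fluorescence intensity change per second fitted from 20 to 320 s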
conditionContext: Recombinant KvBeta, NADPH fluorescence decrease slope, 10 min; at 10 µM; stronger effect = lower value
recordedEndpoint: NADPH fluorescence slope
I only need the number, thanks.

For orientation, consider the following solved cases.
[
  {
    "molecule": "COc1ccc2c(c1OC)C(=O)O[C@@H]2[C@H]1c2c(cc3c(c2OC)OCO3)CCN1C",
    "endpointValue": "-6.4e-05"
  },
  {
    "molecule": "Cc1c(/C(O)=C2\\C(=O)C(=O)N(CCN(C)C)C2c2cccs2)cnn1-c1ccccc1 (stereo unspecified)",
    "endpointValue": "-3.3e-05"
  },
  {
    "molecule": "Cc1cc(OCC(=O)Nc2ccc3oc(-c4ccncc4)nc3c2)ccc1Cl",
    "endpointValue": "-1.3e-05"
  },
  {
    "molecule": "Cc1c(Cl)c(C(F)(F)F)nn1CC(=O)N1CCSCC1",
    "endpointValue": "-4.7e-05"
  },
  {
    "molecule": "COC(=O)C(NC(C)=O)(Nc1ccc(Br)cc1)C(=O)OC",
    "endpointValue": "-1.5e-05"
  },
  {
    "molecule": "c1ccc(OCc2nn3c(-c4ccco4)nnc3s2)cc1",
    "endpointValue": -0.000108
  }
]

Note: attention shifts to another entry.
The value of NADPH fluorescence slope measured for the molecule COc1cc([C@@H]2[C@H]3CN(C)CC=C3C(C#N)=C(N)C2(C#N)C#N)cc2c1OCO2 turned out to be 9.9e-07

###

experimentNotes: inhibitors of mutant huntingtin aggregation, primary screen, imaging, exon1htt(103Q)mCFP cells, high-content imaging (AID 483);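 further: compound exposure lasted 3 days before fixation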
conditionContext: exon1htt(103Q)mCFP cell line, aggregate imaging, at 2 µM; stronger effect = higher value
Classification field: Fulfilled = inhibition of aggregation at or over -10%; Not fulfilled = inhibition of aggregation under -10%.

[
  {
    "compound": "CCc1ccccc1NC(=O)CSC1=C(C#N)C(c2ccc(O)c(OC)c2)C2=C(CCCC2=O)N1 (stereo not given)",
    "assignedCategory": "Not fulfilled"
  },
  {
    "compound": "C[C@]12C=CC(=O)C=C1CC[C@@H]1[C@@H]2[C@@H](O)C[C@@]2(C)[C@H]1CC[C@]2(O)C(=O)COC(=O)CCC(=O)O",
    "assignedCategory": "Fulfilled"
  },
  {
    "compound": "Cc1ccc(S(=O)(=O)NCC(=O)OCN2C(=O)c3ccccc3C2=O)cc1",
    "assignedCategory": "Not fulfilled"
  },
  {
    "compound": "Cc1c(C)c2cc(Cl)c(O)c(CN3CCCCC3)c2oc1=O",
    "assignedCategory": "Not fulfilled"
  },
  {
    "compound": "CC(=O)OCC(=O)[C@@]1(O)CC[C@H]2[C@@H]3CCC4=CC(=O)CC[C@]4(C)[C@H]3C(=O)C[C@@]21C",
    "assignedCategory": "Fulfilled"
  }
]

Check the entry COc1ccccc1N1CCN(CC(O)COc2cccc3ccccc23)CC1 (stereo not given) : does inhibition of aggregation equal or exceed -10%?
Not fulfilled

Is inhibition of aggregation at least -10%? Consider CCOC(=O)C1=C(C)N=C2SC(C)C(=O)N2C1c1cccc(F)c1 (stereo not given)
Fulfilled

# check: inhibition of aggregation of C(=N\n1cnnc1)/c1cccnc1 is greater than or equal to -10%
Fulfilled

Item Cc1c(NC(=O)c2coc(=O)c(Br)c2)c(=O)n(-c2ccccc2)n1C with inhibition of aggregation of -10% or above?
Fulfilled
